Experimental Details: Photo stability of compound in saline at 10 uM irradiated with UV for 3 hrs by HPLC analysis
Assay type: physicochemical
Condition Details: buffer
Readout Type: Stability

>>> value_reported("CC(C)(C)CC(=O)Nc1ccc(NCc2ccc(C(F)(F)F)cc2)cc1N")
"Stable"
>>> value_reported("CC(C)(C)CC(=O)Nc1ccc(NCc2ccc(C(F)(F)F)cc2)cc1N1CCCCC1")
"Unstable"
>>> value_reported("CCCCCCC(=O)Nc1ccc(NCc2ccc(C(F)(F)F)cc2)cc1N")
"Stable"
>>> value_reported("CC(C)(C)CC(=O)Nc1ccc(NCc2c(F)cccc2F)cc1N")
"Stable"
>>> value_reported("CC(C)(C)CC(=O)Nc1ccc(NCc2ccc(C(F)(F)F)cc2)cc1N1CCCC1")
"Unstable"
>>> value_reported("CCCCCCC(=O)Nc1ccc(NCc2ccccc2F)cc1N")
"Stable"
>>> value_reported("CCCCCCCC(=O)Nc1ccc(NCc2ccc(C(F)(F)F)cc2)cc1N")
"Stable"
>>> value_reported("CCCCCCC(=O)Nc1ccc(NCc2ccccc2)cc1N")
"Stable"
>>> value_reported("Nc1cc(NCc2ccc(C(F)(F)F)cc2)ccc1NC(=O)CCC1CCCCC1")
"Stable"
